# protocol_notes: Cytotoxicity against human NCI-H820 cells measured after 8 days
# Assay type: functional, cell-based
# condition_description: NCI-H820, 192 h
measurement_name: IC50 (nM)
Provide only the numeric value, understood in nM.

For C/C=C/Cn1cc(-c2cc(OC)c(C(=O)N3CCOCC3)cc2OC)c2cc(C)[nH]c2c1=O the compound record lists IC50 as 2000

* * *

# protocol_notes: Cytotoxicity against human LS174T-HM7 cells measured after 8 days
# Format: functional, cell-based
# condition_description: LS174T-HM7, 192 h
measurement_name: IC50 (µM)
Provide only the numeric value, understood in µM.

> print(dat)
                                  structure  unit.of.measurement  meas.value
1  C/C=C/Cn1cc(-c2ccc(C(C)(C)O)cc2OC)c2cc[nH]c2c1=O                   µM          20

For C/C=C/Cn1cc(-c2cc(OC)c(C(=O)N3CCOCC3)cc2OC)c2cc(C)[nH]c2c1=O the compound record lists IC50 as 2

For C/C=C/Cn1cc(-c2ccc(C(=O)N3CCOCC3)cc2)c2cc[nH]c2c1=O the compound record lists IC50 as 20
